// data source = PubChem BioAssay AID2060504

# Tested on: 636577-100-R-J1-PDC complex spheroid viability
# method: Anticancer human tumor 636577-100-R-J1-PDC patient-derived endometrial adenocarcinoma cell line growth inhibition [GQUAD]
# study-conditions: second compound 3.16 µM; first compound 0.1 µM; hits give low values
# Excerpt: DNA G-quadruplex Stabilizer Agents in Combinations in Complex Spheroids A high-throughput screen of multi-cell type tumor spheroids was designed to identify active combinations of DNA G-quadruplex stabilizer agents and targeted small molecules. […] Compounds. […] If the clinical Cmax for an agent had not been determined, the highest concentration tested was 10 microM. […]
So I've got a bunch of compounds here, and I need their viability, T/C values.

q: # input compound: C#Cc1c(F)ccc2cc(O)cc(-c3ncc4c(N5CC6CCC(C5)N6)nc(OCC56CCCN5CC(F)C6)nc4c3F)c12 (stereo not given) + Cc1[nH]c2ccc(F)cc2c1-c1nc2c3cccnc3c3ncccc3c2[nH]1 ; wanted: its viability, T/C
a: 23.5%

q: # input compound: C#Cc1c(F)ccc2cc(O)cc(-c3ncc4c(N5CC6CCC(C5)N6)nc(OCC56CCCN5CC(F)C6)nc4c3F)c12 (stereo not given) + Cc1cnc(CNC(=O)c2c(=O)c3ccc(N4CCCN(C)CC4)nc3n3c2sc2ccccc23)cn1 ; wanted: its viability, T/C
a: 20.5%

q: # input compound: CC1COCCN1c1cc(-c2ccnn2C)c2ccnc(-c3ccn[nH]3)c2n1 (stereo not given) + Cc1cnc(CNC(=O)c2c(=O)c3ccc(N4CCCN(C)CC4)nc3n3c2sc2ccccc23)cn1 ; wanted: its viability, T/C
a: 17.4%

q: # input compound: COc1ncnc(C2CC2)c1-c1ncc2cnn(Cc3ccc(-c4nc(C(F)(F)F)cn4C(C)C)cc3)c2n1 + CN(C)c1ccc(Nc2c3ccc(NC(=O)CCN4CCCC4)cc3nc3cc(NC(=O)CCN4CCCC4)ccc23)cc1 ; wanted: its viability, T/C
a: 31.1%

q: # input compound: COc1cccc2c1C(=O)c1c(O)c3c(c(O)c1C2=O)CC(O)(C(=O)CO)CC3OC1CC(N)C(O)C(C)O1 (stereo not given) + CN(C)c1ccc(Nc2c3ccc(NC(=O)CCN4CCCC4)cc3nc3cc(NC(=O)CCN4CCCC4)ccc23)cc1 ; wanted: its viability, T/C
a: 17.2%

====

# System: 636577-100-R-J1-PDC complex spheroid viability
# method: Anticancer human tumor 636577-100-R-J1-PDC cell line growth inhibition [GQUAD];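 further: luminescence signal used as a proxy for viable cells; viability read after seven days of drug exposure; 100% = DMSO vehicle control wells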
# study-conditions: second compound 10 µM; first compound 0.316 µM; hits give low values
observation-type: viability, T/C (%)
Please respond with the number in % and leave the unit unwritten.

q: # input compound: Cc1cccc(N(C)C(=O)C2C(O)CCN2c2nc(C)cc(C(F)(F)F)c2C#N)c1 (stereo not given) + Cc1[nH]c2ccc(F)cc2c1-c1nc2c3cccnc3c3ncccc3c2[nH]1 ; wanted: its viability, T/C
a: 80.8

q: # input compound: CC1COCCN1c1cc(-c2ccnn2C)c2ccnc(-c3ccn[nH]3)c2n1 (stereo not given) + Cc1cnc(CNC(=O)c2c(=O)c3ccc(N4CCCN(C)CC4)nc3n3c2sc2ccccc23)cn1 ; wanted: its viability, T/C
a: 17.2

q: # input compound: O=C(c1cc(Cc2n[nH]c(=O)c3ccccc23)ccc1F)N1CCN(C(=O)C2CC2)CC1 + Cc1[nH]c2ccc(F)cc2c1-c1nc2c3cccnc3c3ncccc3c2[nH]1 ; wanted: its viability, T/C
a: 57.3

q: # input compound: O=C(c1cc(Cc2n[nH]c(=O)c3ccccc23)ccc1F)N1CCN(C(=O)C2CC2)CC1 + CN(C)c1ccc(Nc2c3ccc(NC(=O)CCN4CCCC4)cc3nc3cc(NC(=O)CCN4CCCC4)ccc23)cc1 ; wanted: its viability, T/C
a: 4.06

q: # input compound: CC(C)(O)C1CCC(Nc2ccc3ncc(-c4cccc(C(F)(F)F)c4)n3n2)CC1 (stereo not given) + Cc1cnc(CNC(=O)c2c(=O)c3ccc(N4CCCN(C)CC4)nc3n3c2sc2ccccc23)cn1 ; wanted: its viability, T/C
a: 24.4
